- assay-text: Metal chelating activity of compound assessed as compound-Cu2+ complex formation at 1 mM after 10 mins in presence of CuSO4.5H2O by complexometric indicator murexide based UV-Vis spectrophotometric analysis
- Assay type: physicochemical
- condition-summary: 1000 µM
For each record, write down the corresponding Activity.
Supply the numeric figure in %, leaving out any unit text.

Short answer for Cc1c(O)c(=O)ccn1CCC(=O)NCCCCC(N)CN.Cl.Cl (stereo not drawn) : Activity was 96

Short answer for COc1cc(/C=C/C(=O)NCCCCC(N)CN)ccc1O.Cl.Cl (stereo not drawn) : Activity was 52.15

Short answer for Cl.Cl.NCC(N)CCC(=O)NCCCn1cccc(O)c1=O (stereo not drawn) : Activity was 74.89

Short answer for Cl.Cl.NCC(N)CC(=O)N1CCN(C(=O)CCn2cccc(O)c2=O)CC1 (stereo not drawn) : Activity was 75.14

Short answer for CCCCN1CCN(C(=O)C(N)CN)CC1.Cl.Cl (stereo not drawn) : Activity was 53.27

Short answer for Cl.Cl.NCC(N)C(=O)N1CCNCC1 (stereo not drawn) : Activity was 51.61

Short answer for NCCN : Activity was 100

Short answer for Cl.Cl.NCC(N)CCC(=O)N1CCN(C(=O)CCn2cccc(O)c2=O)CC1 (stereo not drawn) : Activity was 74.59

----------
- assay-text: Reactive carbonyl species trapping activity of compound assessed as MGO adduct formation at 10 mM preincubated for 24 hrs with MGO measured after 15 mins by LCMS analysis
- Format: physicochemical
- condition-summary: 0.25 h, 10000 µM
reported-endpoint: Activity (%)
Supply the numeric figure in %, leaving out any unit text.

Short answer for Cl.Cl.NCC(N)CC(=O)N1CCN(C(=O)CCn2cccc(O)c2=O)CC1 (centres undefined) : Activity was 99

Short answer for Cl.Cl.NCC(N)CCC(=O)N1CCN(C(=O)CCn2cccc(O)c2=O)CC1 (centres undefined) : Activity was 97

Short answer for Cl.Cl.NCC(N)CCCNC(=O)CCn1cccc(O)c1=O (centres undefined) : Activity was 97

Short answer for COc1cc(/C=C/C(=O)NCCCCC(N)CN)ccc1O.Cl.Cl (centres undefined) : Activity was 100

----------
- assay-text: Reactive carbonyl species trapping activity of compound assessed as MDA adduct formation at 10 mM preincubated for 24 hrs with MDA measured after 0.25 hrs by LCMS analysis
- Type: physicochemical
- condition-summary: 10000 µM
reported-endpoint: Activity
I'd appreciate it if you wrote the number followed by its unit.

Short answer for Cl.Cl.NCC(N)CCC(=O)N1CCN(C(=O)c2cc(O)c(O)c(O)c2)CC1 (stereo not drawn) : Activity was 50%

Short answer for COc1cc(/C=C/C(=O)NCCCCC(N)CN)ccc1O.Cl.Cl (stereo not drawn) : Activity was 17%

Short answer for Cl.Cl.NCC(N)CCC(=O)NCCCn1cccc(O)c1=O (stereo not drawn) : Activity was 74%

----------
- assay-text: Reactive carbonyl species trapping activity of compound assessed as MDA adduct formation at 10 mM preincubated for 24 hrs with MDA measured after 1 hr by LCMS analysis
- Format: physicochemical
- condition-summary: 10000 µM
For each record, write down the corresponding Activity.
Supply the numeric figure in %, leaving out any unit text.

Short answer for Cl.Cl.NCC(N)CCCCNC(=O)CCn1cccc(O)c1=O (stereo unspecified) : Activity was 69

Short answer for Cc1c(O)c(=O)ccn1CCC(=O)NCCCCC(N)CN.Cl.Cl (stereo unspecified) : Activity was 88

Short answer for Cl.Cl.NCC(N)CCC(=O)N1CCN(C(=O)CCn2cccc(O)c2=O)CC1 (stereo unspecified) : Activity was 81

Short answer for Cl.Cl.NCC(N)C(=O)N1CCNCC1 (stereo unspecified) : Activity was 100

Short answer for Cl.Cl.NCC(N)CCC(=O)N1CCN(C(=O)c2cc(O)c(O)c(O)c2)CC1 (stereo unspecified) : Activity was 68

Short answer for Cl.Cl.NCC(N)CC(=O)N1CCN(C(=O)CCn2cccc(O)c2=O)CC1 (stereo unspecified) : Activity was 87

Taken from ChEMBL document CHEMBL3865830.
